I'd appreciate it if you could supply PBM binding z-score values for the items below.
System: PPARa:RXRa (NR concentration 270 nM, RXRa partner concentration 90 nM)
ASSAY_PROCEDURE: PBM binding z-score (relative to random genomic background probes); higher = stronger binding; sequences stand for … in GC…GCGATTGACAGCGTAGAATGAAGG

Exercise: Look up PBM binding z-score: "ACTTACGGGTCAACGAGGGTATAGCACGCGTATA"
Key: 5.61

Exercise: Could you share which PBM binding z-score value was measured for "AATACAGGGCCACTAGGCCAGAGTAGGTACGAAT" ?
Key: 0.171

Exercise: Tell me the measured PBM binding z-score of "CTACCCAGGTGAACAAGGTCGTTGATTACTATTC" , please.
Key: 1.99

Exercise: What PBM binding z-score value was documented for this sequence, "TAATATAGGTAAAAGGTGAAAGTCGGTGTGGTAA" ?
Key: 6.16

Exercise: Any idea what PBM binding z-score was measured for "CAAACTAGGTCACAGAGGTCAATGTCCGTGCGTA" ?
Key: 6.32

Exercise: What does the record list as PBM binding z-score for "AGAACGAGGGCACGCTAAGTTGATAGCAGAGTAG" ?
Key: 2.07

Exercise: Reported PBM binding z-score, sequence "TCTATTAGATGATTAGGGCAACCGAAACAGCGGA" : ____
Key: 0.871

Exercise: May I ask what PBM binding z-score has been recorded for "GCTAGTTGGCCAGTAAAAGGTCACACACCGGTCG" ?
Key: 4.29

Exercise: Data request, read-out PBM binding z-score, for "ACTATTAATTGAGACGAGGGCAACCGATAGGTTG"
Key: 0.542

Exercise: Which PBM binding z-score value belongs to "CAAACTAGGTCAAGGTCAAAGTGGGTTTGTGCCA" ?
Key: 6.04

Exercise: Item "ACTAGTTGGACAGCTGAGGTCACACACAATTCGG" has what recorded PBM binding z-score?
Key: 3.53

Exercise: # query: PBM binding z-score of entry "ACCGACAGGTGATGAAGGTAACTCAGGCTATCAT"
Key: 0.179

Exercise: Consider the sequence shown here: "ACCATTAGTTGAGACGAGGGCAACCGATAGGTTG" What is its recorded PBM binding z-score?
Key: 0.553

Exercise: Fill blank: measured PBM binding z-score of the sequence "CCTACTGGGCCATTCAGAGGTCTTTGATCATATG" is ____.
Key: 0.481

Exercise: Data request, read-out PBM binding z-score, for "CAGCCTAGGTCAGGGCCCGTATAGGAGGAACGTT"
Key: 1.72

Exercise: # query: PBM binding z-score of entry "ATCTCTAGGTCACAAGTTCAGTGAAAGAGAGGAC"
Key: 4.35

Exercise: PBM binding z-score for "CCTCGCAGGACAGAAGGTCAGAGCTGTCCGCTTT" ?
Key: 1.86

Exercise: # PBM binding z-score lookup, item "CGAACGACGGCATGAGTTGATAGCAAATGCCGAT"
Key: -1.22

Exercise: Give the measured PBM binding z-score of "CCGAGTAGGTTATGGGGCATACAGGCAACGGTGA" .
Key: 2.3

Exercise: # lookup: PBM binding z-score of "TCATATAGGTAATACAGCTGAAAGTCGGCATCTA"
Key: 1.14

Exercise: Given the sequence "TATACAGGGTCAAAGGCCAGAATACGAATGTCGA" , what is its reported PBM binding z-score?
Key: 5.89

Exercise: Quick one: PBM binding z-score for "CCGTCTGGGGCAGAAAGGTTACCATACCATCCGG" ?
Key: 1.64

Exercise: Returns the measured PBM binding z-score for the input sequence. Input: "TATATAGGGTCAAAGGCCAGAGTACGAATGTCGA"
Key: 6.35

Exercise: Look at this sequence and give its reported PBM binding z-score. "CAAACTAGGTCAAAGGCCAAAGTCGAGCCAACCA"
Key: 6.63

Exercise: // query PBM binding z-score value for entry "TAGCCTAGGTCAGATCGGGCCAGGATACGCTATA"
Key: 1.68

Exercise: So what's the measured PBM binding z-score for this one? "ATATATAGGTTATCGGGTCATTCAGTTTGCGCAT"
Key: 5.17

Exercise: Can you share its PBM binding z-score? I mean this sequence: "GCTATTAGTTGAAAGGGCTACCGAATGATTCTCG"
Key: 0.0178

Exercise: Find the recorded PBM binding z-score belonging to "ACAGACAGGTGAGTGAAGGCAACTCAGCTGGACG" and report it.
Key: -0.0544

Exercise: Can you share its PBM binding z-score? I mean this sequence: "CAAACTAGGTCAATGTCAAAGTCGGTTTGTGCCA"
Key: 4.9

Exercise: Any idea what its PBM binding z-score is? The sequence is "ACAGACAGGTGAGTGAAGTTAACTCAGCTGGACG"
Key: -0.341

Exercise: Record request: PBM binding z-score value, item "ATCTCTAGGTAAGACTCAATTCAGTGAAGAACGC"
Key: 0.0535

Exercise: May I ask what PBM binding z-score has been recorded for "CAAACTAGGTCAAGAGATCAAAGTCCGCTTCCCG" ?
Key: 5.17

Exercise: What value of measured PBM binding z-score is listed for "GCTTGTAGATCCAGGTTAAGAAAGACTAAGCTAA" ?
Key: 0.491

Exercise: So what's the measured PBM binding z-score for this one? "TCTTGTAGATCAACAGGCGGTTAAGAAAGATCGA"
Key: 0.615

Exercise: Which PBM binding z-score value is on record for "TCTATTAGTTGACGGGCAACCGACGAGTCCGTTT" ?
Key: 0.565

Exercise: PBM binding z-score lookup needed for "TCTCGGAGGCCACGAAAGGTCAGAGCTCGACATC" , thanks.
Key: 3.82

Exercise: Reported PBM binding z-score for "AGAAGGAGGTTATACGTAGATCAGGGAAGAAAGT" : what is it?
Key: 2.43

Exercise: Report PBM binding z-score for "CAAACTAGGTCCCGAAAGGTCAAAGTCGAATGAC" please.
Key: 5.54

Exercise: Item "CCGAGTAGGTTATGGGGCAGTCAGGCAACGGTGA" has what recorded PBM binding z-score?
Key: 1.76

Exercise: Using the record for "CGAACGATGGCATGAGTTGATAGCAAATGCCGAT" , report its PBM binding z-score.
Key: -0.496

Exercise: Which value of PBM binding z-score has been reported for "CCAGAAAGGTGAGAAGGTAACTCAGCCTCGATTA" in the records?
Key: 2.47

Exercise: Recorded PBM binding z-score of "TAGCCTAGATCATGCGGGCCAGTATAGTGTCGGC" , please.
Key: -0.834

Exercise: Data request, read-out PBM binding z-score, for "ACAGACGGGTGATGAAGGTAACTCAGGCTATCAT"
Key: -0.198

Exercise: Please give the measured PBM binding z-score for this sequence: "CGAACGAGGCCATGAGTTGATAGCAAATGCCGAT"
Key: 0.273

Exercise: Would you kindly share the measured PBM binding z-score for "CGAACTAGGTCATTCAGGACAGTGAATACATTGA" ?
Key: 4.49

Exercise: Need PBM binding z-score of "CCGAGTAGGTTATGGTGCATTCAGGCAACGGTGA" , thanks.
Key: 1.52

Exercise: GET /values?readout=PBM binding z-score&item= "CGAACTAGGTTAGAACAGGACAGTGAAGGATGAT"
Key: 1.22

Exercise: # get_value(readout='PBM binding z-score', item= "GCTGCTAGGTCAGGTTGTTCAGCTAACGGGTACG" )
Key: 1.29

Exercise: Given "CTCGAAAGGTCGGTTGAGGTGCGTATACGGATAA" , state its recorded PBM binding z-score.
Key: 2.3

Exercise: Would you kindly share the measured PBM binding z-score for "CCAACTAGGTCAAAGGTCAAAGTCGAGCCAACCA" ?
Key: 7.64

Exercise: Which PBM binding z-score reading was recorded for the sequence "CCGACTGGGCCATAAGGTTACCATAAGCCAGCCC" ?
Key: 1.4

###

Tested on: PPARg:RXRa (NR concentration 180 nM, RXRa partner concentration 90 nM)
ASSAY_PROCEDURE: PBM binding z-score (relative to random genomic background probes); higher = stronger binding; sequences stand for … in GC…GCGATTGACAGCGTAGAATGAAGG
I'd appreciate it if you could supply PBM binding z-score values for the items below.
Answer as a number with no unit attached.

Exercise: Which PBM binding z-score reading was recorded for the sequence "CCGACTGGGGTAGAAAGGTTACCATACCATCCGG" ?
Key: 2.04

Exercise: Quick check: PBM binding z-score of "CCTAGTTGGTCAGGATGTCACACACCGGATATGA" ?
Key: 0.898

Exercise: Entry "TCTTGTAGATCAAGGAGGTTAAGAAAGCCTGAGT" : reported PBM binding z-score = ?
Key: -0.429

Exercise: For the sequence "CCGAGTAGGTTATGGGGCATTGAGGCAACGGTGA" , what PBM binding z-score is on record?
Key: 3.48

Exercise: Bench note: what PBM binding z-score did "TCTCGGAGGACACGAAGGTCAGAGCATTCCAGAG" show?
Key: 0.742

Exercise: Which PBM binding z-score value is on record for "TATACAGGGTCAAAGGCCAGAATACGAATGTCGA" ?
Key: 7.8

Exercise: Value lookup for PBM binding z-score; key = "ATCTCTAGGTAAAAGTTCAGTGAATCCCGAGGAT"
Key: 8.09

Exercise: Any idea what PBM binding z-score was measured for "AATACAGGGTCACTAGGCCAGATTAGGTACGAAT" ?
Key: 7.81

Exercise: Query: PBM binding z-score; subject: "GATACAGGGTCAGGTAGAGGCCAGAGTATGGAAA"
Key: 3.75

Exercise: Can you share its PBM binding z-score? I mean this sequence: "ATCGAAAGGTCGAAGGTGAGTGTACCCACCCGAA"
Key: 4.86

Exercise: Requested read-out: PBM binding z-score. Entry: "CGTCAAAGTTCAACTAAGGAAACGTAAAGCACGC"
Key: 5.11

Exercise: Which PBM binding z-score value is on record for "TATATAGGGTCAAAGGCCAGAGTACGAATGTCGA" ?
Key: 8.65
